From: ChEMBL document CHEMBL1125920

# Tested on: Pseudomonas aeruginosa
# procedureText: Antibacterial activity was determined against gram negative organism, Pseudomonas aeruginosa (UI-18)
# Format: functional
// MIC lookup, one value per entry
// return numeric value only (unit: µg/mL, not printed)

Check out these entries, answers already filled in.
# compound, assayedSystem, endpointLabel, recordedValue
data = [
    ("CCn1cc(C(=O)O)c(=O)c2cc(F)c(N3CC(C)NC(C)C3)cc21 (configuration not stated)", "Pseudomonas aeruginosa", "MIC", 6.3),
    ("Cc1c(F)c(N2CCNC(C)C2)c(F)c2c1c(=O)c(C(=O)O)cn2C1CC1 (configuration not stated)", "Pseudomonas aeruginosa", "MIC", 0.4),
    ("CCNCC1CCN(c2c(F)c(C)c3c(=O)c(C(=O)O)cn(C4CC4)c3c2F)C1 (configuration not stated)", "Pseudomonas aeruginosa", "MIC", 0.8),
    ("NC1CCN(c2cc3c(cc2F)c(=O)c(C(=O)O)cn3-c2ccc(F)cc2F)C1 (configuration not stated)", "Pseudomonas aeruginosa", "MIC", 0.4),
    ("CCn1cc(C(=O)O)c(=O)c2cc(F)c(N3CCC(N)C3)cc21 (configuration not stated)", "Pseudomonas aeruginosa", "MIC", 0.8),
    ("Cc1c(F)c(N2CCC(N)C2)c(Cl)c2c1c(=O)c(C(=O)O)cn2C1CC1 (configuration not stated)", "Pseudomonas aeruginosa", "MIC", 0.2),
]

Proceed to the following item.
Test system Pseudomonas aeruginosa; read-out MIC; what value for NC1CCN(c2cc3c(cc2F)c(=O)c(C(=O)O)cn3C2CC2)C1 (configuration not stated) ?
0.2

====

# Test system: Mus musculus
# procedureText: In vivo subcutaneous protective dose was determined in female charles river CD-1 mice infected with Escherichia coli (vogel)
# Assay type: functional
# studyConditions: sc, read-out: PD50
// ED50 lookup, one value per entry
// return numeric value only (unit: mg/kg, not printed)

# compound, ED50 [mg/kg]
measured = [
    ("Cc1c(F)c(N2CCNCC2)cc2c1c(=O)c(C(=O)O)cn2C1CC1", 0.4),
    ("NC1CCN(c2c(F)cc3c(=O)c(C(=O)O)cn(C4CC4)c3c2F)C1 (stereo not drawn)", 0.4),
]

Proceed to the following item.
Name the recorded ED50 for Cc1c(F)c(N2CCNC(C)C2)c(F)c2c1c(=O)c(C(=O)O)cn2C1CC1 (stereo not drawn) .
0.4

====

As an illustration, consider measured DNA cleavage for compounds on DNA gyrase (Escherichia coli) (UniProt P0AES6+P0AES4).
// return numeric value only (unit: µg/mL, not printed)

# compound, assayedSystem, readoutUnits, DNA cleavage
rows = [
    ("NC1CCN(c2c(F)cc3c(=O)c(C(=O)O)cn(C4CC4)c3c2F)C1 (stereo unspecified)", "DNA gyrase (Escherichia coli) (UniProt P0AES6+P0AES4)", "µg/mL", 0.25),
    ("CCNCC1CCN(c2cc3c(cc2F)c(=O)c(C(=O)O)cn3CC)C1 (stereo unspecified)", "DNA gyrase (Escherichia coli) (UniProt P0AES6+P0AES4)", "µg/mL", 2.5),
    ("Cc1c(F)c(N2CCNC(C)C2)c(F)c2c1c(=O)c(C(=O)O)cn2C1CC1 (stereo unspecified)", "DNA gyrase (Escherichia coli) (UniProt P0AES6+P0AES4)", "µg/mL", 3),
    ("Cc1c(F)c(N2CCNC(C)C2)cc2c1c(=O)c(C(=O)O)cn2-c1ccc(F)cc1F (stereo unspecified)", "DNA gyrase (Escherichia coli) (UniProt P0AES6+P0AES4)", "µg/mL", 1.75),
    ("CCn1cc(C(=O)O)c(=O)c2c(C)c(F)c(N3CCC(N)C3)c(F)c21 (stereo unspecified)", "DNA gyrase (Escherichia coli) (UniProt P0AES6+P0AES4)", "µg/mL", 3),
    ("Cc1c(F)c(N2CCC(C)(CN)C2)cc2c1c(=O)c(C(=O)O)cn2C1CC1 (stereo unspecified)", "DNA gyrase (Escherichia coli) (UniProt P0AES6+P0AES4)", "µg/mL", 0.75),
    ("CC1(CN)CCN(c2c(F)cc3c(=O)c(C(=O)O)cn(C4CC4)c3c2F)C1 (stereo unspecified)", "DNA gyrase (Escherichia coli) (UniProt P0AES6+P0AES4)", "µg/mL", 2.6),
    ("Cc1c(F)c(N2CCNCC2)c(F)c2c1c(=O)c(C(=O)O)cn2C1CC1", "DNA gyrase (Escherichia coli) (UniProt P0AES6+P0AES4)", "µg/mL", 2.75),
    ("Cc1c(F)c(N2CCNCC2)cc2c1c(=O)c(C(=O)O)cn2-c1ccc(F)cc1F", "DNA gyrase (Escherichia coli) (UniProt P0AES6+P0AES4)", "µg/mL", 3),
    ("Cc1c(F)c(N2CCC(N)C2)cc2c1c(=O)c(C(=O)O)cn2-c1ccc(F)cc1F (stereo unspecified)", "DNA gyrase (Escherichia coli) (UniProt P0AES6+P0AES4)", "µg/mL", 0.37),
]

Proceed to the following item.
Test system DNA gyrase (Escherichia coli) (UniProt P0AES6+P0AES4); read-out DNA cleavage; what value for `CCn1cc(C(=O)O)c(=O)c2c(C)c(F)c(N3CCNCC3)cc21` ?
3
